- TESTED ON: human αvβ6-Integrin (Homo sapiens, UniProt P06756+P18564, DEL708-788)
- Construct: purchased R&D
- Sequence (P06756 31-992 limits assumed, stated change not applied): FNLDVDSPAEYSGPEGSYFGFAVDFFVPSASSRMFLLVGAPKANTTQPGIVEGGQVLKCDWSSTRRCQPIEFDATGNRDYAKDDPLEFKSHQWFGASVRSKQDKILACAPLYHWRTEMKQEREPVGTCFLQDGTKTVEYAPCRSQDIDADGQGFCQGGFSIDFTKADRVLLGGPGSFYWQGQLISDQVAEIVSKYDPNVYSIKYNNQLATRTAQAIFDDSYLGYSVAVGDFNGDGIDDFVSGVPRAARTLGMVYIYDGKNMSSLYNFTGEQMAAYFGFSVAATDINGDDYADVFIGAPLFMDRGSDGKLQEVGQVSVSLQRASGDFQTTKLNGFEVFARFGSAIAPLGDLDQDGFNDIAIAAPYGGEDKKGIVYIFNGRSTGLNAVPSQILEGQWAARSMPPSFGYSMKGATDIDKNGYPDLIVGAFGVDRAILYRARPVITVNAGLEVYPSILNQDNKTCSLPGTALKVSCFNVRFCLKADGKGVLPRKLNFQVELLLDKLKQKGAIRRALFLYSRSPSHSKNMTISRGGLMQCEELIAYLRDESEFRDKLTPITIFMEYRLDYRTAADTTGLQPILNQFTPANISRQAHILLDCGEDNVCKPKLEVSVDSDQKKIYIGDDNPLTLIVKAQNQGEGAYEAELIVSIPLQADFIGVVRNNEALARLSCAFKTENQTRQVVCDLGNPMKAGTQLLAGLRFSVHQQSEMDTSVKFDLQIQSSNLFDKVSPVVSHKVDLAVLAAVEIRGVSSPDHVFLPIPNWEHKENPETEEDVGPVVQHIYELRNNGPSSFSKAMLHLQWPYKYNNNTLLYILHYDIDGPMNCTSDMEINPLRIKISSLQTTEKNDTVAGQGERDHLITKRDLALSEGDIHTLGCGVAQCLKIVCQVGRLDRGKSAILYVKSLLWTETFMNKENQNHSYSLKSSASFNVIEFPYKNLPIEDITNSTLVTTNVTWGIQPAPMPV
- Sequence (P18564 22-707 limits assumed, stated change not applied): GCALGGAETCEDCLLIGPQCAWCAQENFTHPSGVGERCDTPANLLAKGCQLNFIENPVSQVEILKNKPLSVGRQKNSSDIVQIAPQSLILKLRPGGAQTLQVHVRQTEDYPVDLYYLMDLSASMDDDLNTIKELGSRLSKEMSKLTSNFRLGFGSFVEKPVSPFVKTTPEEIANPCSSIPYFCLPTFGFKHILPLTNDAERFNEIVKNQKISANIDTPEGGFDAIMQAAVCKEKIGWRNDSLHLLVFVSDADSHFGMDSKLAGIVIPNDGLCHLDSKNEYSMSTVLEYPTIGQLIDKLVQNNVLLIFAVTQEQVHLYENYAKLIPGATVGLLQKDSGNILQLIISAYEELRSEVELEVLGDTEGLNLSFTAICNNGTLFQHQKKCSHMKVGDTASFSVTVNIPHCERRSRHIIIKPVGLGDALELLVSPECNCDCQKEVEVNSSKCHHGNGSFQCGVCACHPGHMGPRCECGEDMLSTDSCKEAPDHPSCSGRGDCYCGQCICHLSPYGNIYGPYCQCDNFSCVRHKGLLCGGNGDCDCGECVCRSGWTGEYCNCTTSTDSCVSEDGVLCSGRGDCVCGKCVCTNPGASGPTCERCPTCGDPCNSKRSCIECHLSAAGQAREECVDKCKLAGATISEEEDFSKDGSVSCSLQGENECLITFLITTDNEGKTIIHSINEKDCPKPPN
- PROCEDURE DETAILS: Integrin binding assay (solid-phase), αvβ6
- STATED CONDITIONS: Table 1; read-out: αvβ6, IC50
MEASURED METRIC: IC50 (nM)
Answers are plain numbers, in nM.

Quick check: IC50 of C[C@@H]1NC(=O)[C@H](CC(=O)O)NC(=O)CNC(=O)[C@@H](CCCNC(=N)N)N(C)C(=O)[C@H](Cc2ccccc2)NC(=O)[C@H](C)N(C)C1=O [compound 33, c(*rGDA*AF)] ?
25

---

- PROCEDURE DETAILS: Caco-2 permeability study (Examples 1-4)
- STATED CONDITIONS: Caco-2, Caco-2 Papp B-to-A, B-to-A; text values (FIGS. 5, 18, 20), unit inferred
MEASURED METRIC: Papp B→A (×10⁻⁶ cm/s)
Give bare numbers, in ×10⁻⁶ cm/s.

Quick check: Papp B→A of CCCCCCOC(=O)N=C(NCCC[C@@H]1NC(=O)[C@@H](C(C)C)N(C)C(=O)[C@H](C)N(C)C(=O)[C@H](C)NC(=O)[C@H](CC(=O)OC)NC(=O)CNC1=O)NC(=O)OCCCCCC [peptide 29P, c(*vR(Hoc)2GD(OMe)A*A)] ?
10.6

---

- PROCEDURE DETAILS: in vitro
- STATED CONDITIONS: human, Caco-2, pH 7.4, Net efflux (quotient of Papp (BA) to Papp (AB))
Where a SMILES comes first, the peptide text is derived from it.
MEASURED METRIC: efflux ratio at 90 min, 10 µM
Numbers only.

- CC(C)NCC(O)COc1cccc2ccccc12 (centres unmarked): 0.8
- C[C@H]1O[C@@H](O[C@H]2[C@@H](O)C[C@H](O[C@H]3[C@@H](O)C[C@H](O[C@H]4CC[C@@]5(C)[C@H](CC[C@@H]6[C@@H]5C[C@@H](O)[C@]5(C)[C@@H](C7=CC(=O)OC7)CC[C@]65O)C4)O[C@@H]3C)O[C@@H]2C)C[C@H](O)[C@@H]1O: 28.6
- CC(C)C[C@@H]1NC(=O)[C@H](CC(=O)O)NC(=O)CNC(=O)[C@H](CCCNC(=N)N)NC(=O)[C@H](Cc2ccccc2)NC(=O)[C@@H]2CCCN2C(=O)[C@@H]2CCCN2C(=O)[C@H](CC(C)C)NC(=O)[C@H](C)NC1=O [OM1186] (cyclo(RGDLALPPF)): 0.6

# per-item lookup of efflux ratio at 90 min, 10 µM; items listed below
1. CC(C)C[C@@H]1NC(=O)CNC(=O)[C@@H]2CCCN2C(=O)[C@@H]2CCCN2C(=O)[C@H](CC(C)C)NC(=O)[C@H](CC(=O)O)NC(=O)CNC(=O)[C@H](CCCNC(=N)N)NC1=O [FRX068] (cyclo(RGDLPPGL))
2. C[C@@H]1NC(=O)[C@H](C)NC(=O)[C@@H](C)N(C)C(=O)[C@H](C)N(C)C(=O)[C@H](C)NC(=O)[C@H](C)NC1=O

1.1
1.1

---

- TESTED ON: human αvβ5-integrin (Homo sapiens, UniProt P06756+P18084)
- Sequence (P06756 31-889 limits assumed): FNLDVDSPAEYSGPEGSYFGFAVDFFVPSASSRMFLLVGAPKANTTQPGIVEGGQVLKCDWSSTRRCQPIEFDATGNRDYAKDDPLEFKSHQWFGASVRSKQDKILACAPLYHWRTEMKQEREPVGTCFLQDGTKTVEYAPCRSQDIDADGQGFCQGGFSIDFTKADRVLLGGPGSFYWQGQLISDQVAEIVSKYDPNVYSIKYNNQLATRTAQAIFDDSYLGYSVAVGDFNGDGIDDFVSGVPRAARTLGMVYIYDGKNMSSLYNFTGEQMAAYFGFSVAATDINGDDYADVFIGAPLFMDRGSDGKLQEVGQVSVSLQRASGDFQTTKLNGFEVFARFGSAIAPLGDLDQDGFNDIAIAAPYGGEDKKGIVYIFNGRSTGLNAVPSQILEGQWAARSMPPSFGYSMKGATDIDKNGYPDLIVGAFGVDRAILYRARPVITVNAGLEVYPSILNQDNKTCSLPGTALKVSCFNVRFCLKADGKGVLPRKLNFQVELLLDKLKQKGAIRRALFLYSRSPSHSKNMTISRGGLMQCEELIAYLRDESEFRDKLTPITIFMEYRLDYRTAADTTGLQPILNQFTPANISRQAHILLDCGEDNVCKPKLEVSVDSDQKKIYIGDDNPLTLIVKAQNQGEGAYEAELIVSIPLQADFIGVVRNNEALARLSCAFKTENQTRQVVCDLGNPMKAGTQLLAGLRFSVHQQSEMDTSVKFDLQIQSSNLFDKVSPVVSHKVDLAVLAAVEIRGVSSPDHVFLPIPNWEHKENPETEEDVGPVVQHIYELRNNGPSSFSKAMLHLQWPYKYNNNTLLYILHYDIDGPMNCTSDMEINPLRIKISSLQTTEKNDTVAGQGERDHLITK
- Sequence (P06756 891-1048 partner limits assumed): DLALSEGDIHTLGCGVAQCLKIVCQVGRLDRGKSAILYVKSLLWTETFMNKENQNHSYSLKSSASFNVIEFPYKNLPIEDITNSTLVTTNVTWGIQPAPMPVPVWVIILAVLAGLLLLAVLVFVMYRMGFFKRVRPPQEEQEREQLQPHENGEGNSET
- Sequence (P18084 24-799): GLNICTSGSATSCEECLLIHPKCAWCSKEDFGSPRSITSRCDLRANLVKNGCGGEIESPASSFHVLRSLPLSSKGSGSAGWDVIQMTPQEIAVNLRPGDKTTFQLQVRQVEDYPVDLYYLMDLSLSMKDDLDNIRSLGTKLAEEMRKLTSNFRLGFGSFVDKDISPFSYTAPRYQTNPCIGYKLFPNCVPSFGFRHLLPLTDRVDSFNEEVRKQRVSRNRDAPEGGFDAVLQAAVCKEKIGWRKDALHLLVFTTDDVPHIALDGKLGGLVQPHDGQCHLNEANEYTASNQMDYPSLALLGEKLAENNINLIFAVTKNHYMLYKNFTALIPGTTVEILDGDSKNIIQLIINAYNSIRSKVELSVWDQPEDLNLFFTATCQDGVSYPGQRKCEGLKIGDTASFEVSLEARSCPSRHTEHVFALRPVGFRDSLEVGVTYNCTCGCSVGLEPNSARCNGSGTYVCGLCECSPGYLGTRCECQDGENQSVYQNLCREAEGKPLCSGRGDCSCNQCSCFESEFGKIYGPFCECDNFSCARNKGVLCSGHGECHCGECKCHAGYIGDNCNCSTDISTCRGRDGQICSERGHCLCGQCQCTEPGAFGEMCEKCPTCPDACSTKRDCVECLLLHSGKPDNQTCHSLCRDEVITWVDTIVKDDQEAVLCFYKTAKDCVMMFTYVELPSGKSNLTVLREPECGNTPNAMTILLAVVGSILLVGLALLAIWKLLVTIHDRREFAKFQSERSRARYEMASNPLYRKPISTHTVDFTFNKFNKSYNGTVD
- PROCEDURE DETAILS: Integrin binding assay (solid-phase), αvβ5
MEASURED METRIC: IC50

Quick check: IC50 of C[C@@H]1NC(=O)[C@H](C)N(C)C(=O)[C@H](C)NC(=O)[C@H](CC(=O)O)N(C)C(=O)CNC(=O)[C@@H](CCCNC(=N)N)NC1=O [compound 17, c(rG*DA*AA)] ?
> 5 µM
